- Read-out: Monokine induced gamma interferon (MIG), CXCL9 (gene 4283)
- Assay Method Text: BSK_hDFCGF_MIG: BioMAP Diversity Plus: hDFCGF Assay for Monokine induced gamma interferon (MIG) Biomarker Activity (AID 2283063)
- Setup Conditions: primary human foreskin fibroblasts; actives raise or lower the signal
Activity calls are given as the source filed them. Rule for the calls: active = hit-call score of the fitted dose curve at least 0.9, where 1 is the maximum; inactive = score below 0.9.
Permitted responses: active, inactive

Take a look at these entries with their results.
- Compound: "CCCCc1nc2cccnc2n1Cc1ccc(-c2ccccc2-c2nnn[nH]2)cc1"
  Group: "inactive"
- Compound: "O=C(O)CC(O)(CC(=O)O)C(=O)O"
  Group: "inactive"
- Compound: "O=C(O)CN(CC(=O)O)CC(=O)O"
  Group: "inactive"
- Compound: "CO[C@@H]1COCC[C@@H]1N[C@@H]1CC[C@@](C(=O)N2CCc3ncc(C(F)(F)F)cc3C2)(C(C)C)C1"
  Group: "inactive"
- Compound: "Oc1ccccc1O"
  Group: "active"
- Compound: "CCCCOC(=O)CCCCC(=O)OCCCC"
  Group: "inactive"
- Compound: "CC(=O)O[C@]1(C(C)=O)CC[C@H]2[C@@H]3C=C(Cl)C4=CC(=O)[C@@H]5C[C@@H]5[C@]4(C)[C@H]3CC[C@@]21C"
  Group: "inactive"
- Compound: "C=CCc1ccc(OC)c(OC)c1"
  Group: "inactive"

What outcome does the record of this test show for CCC(C)N(C)C(=O)c1cc2ccccc2c(-c2ccccc2Cl)n1 (configuration not stated) ?
inactive

Try the compound Cc1cc(Cc2ccc(N)c(C)c2)ccc1N
inactive

What do you get for CC1=C(C)S(=O)(=O)CCS1(=O)=O ?
inactive

Quick one: CC(C)NCC(O)c1ccc(O)c(O)c1 (configuration not stated)
inactive

---

- System Tested: Cytochrome P450 2C19 (Homo sapiens)
- Assay Method Text: NVS_ADME_hCYP2C19: NovaScreen (NVS) CYP450-related Enzyme Activity (ADME) Assay for human CYP2C19 (AID 2283113);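 note: potency for inhibition seen as loss of fluorescent signal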
Results filed as inconclusive are left out. The source made the active and inactive calls. Rule for the calls: active = hit-call score of the fitted dose curve at least 0.9, where 1 is the maximum; inconclusive = response in the unintended direction; inactive = score below 0.9.
Quantity Measured: AC50

// below: answered molecules
- Molecule: "Cc1cc(Cc2ccc(N)c(C)c2)ccc1N"
  Readout Value: "7.05 µM (active)"
- Molecule: "CC(COCC(C)OC(=O)c1ccccc1)OC(=O)c1ccccc1 (stereo not drawn)"
  Readout Value: "2.27 µM (active)"
- Molecule: "CC(=O)OC1CC(C)OC(C)O1 (stereo not drawn)"
  Readout Value: "15.1 µM (active)"
- Molecule: "CC(C)(O)c1ccc(CNC(=O)c2cccnc2Oc2ccc(F)cc2)cc1"
  Readout Value: "4.26 µM (active)"
- Molecule: "CC(C)OC(=O)C(C)(C)Oc1ccc(C(=O)c2ccc(Cl)cc2)cc1"
  Readout Value: "4.67 µM (active)"
- Molecule: "CCCCCCCCCCCCCCCCO"
  Readout Value: "12.6 µM (active)"

Look up AC50 for this molecule: CC(C)c1cccc(C(C)C)c1
10 µM (active)

---

- System Tested: rat Serotonin, 5-Hydroxytryptamine Receptor (5HT), Non-Selective Binding, Htr1a (gene 24473) (UniProt P19327)
- Sequence (P19327 whole entry, looked up): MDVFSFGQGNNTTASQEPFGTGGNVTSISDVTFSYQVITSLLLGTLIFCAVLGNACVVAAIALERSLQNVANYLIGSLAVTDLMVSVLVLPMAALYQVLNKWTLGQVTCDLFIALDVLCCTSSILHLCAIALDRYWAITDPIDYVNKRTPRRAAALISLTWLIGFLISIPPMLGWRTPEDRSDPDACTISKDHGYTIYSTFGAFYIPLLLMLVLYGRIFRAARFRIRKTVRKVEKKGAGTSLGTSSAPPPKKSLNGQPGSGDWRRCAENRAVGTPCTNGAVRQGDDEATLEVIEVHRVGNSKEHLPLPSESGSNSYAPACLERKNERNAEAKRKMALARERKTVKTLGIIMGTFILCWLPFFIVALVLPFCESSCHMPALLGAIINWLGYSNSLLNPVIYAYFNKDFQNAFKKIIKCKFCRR
- Assay Method Text: NVS_GPCR_r5HT_NonSelective: NovaScreen (NVS) G Protein-Coupled Receptor Assay for rat Serotonin, 5-Hydroxytryptamine Receptor (5HT), Non-Selective Binding (AID 2283295)
Results filed as inconclusive are left out. Active and inactive are the calls of the source. How the source made its calls: active means hit-call score of the fitted dose curve at least 0.9, where 1 is the maximum; inconclusive means response in the unintended direction; inactive means score below 0.9.
Hi! Could you answer with just one of these? active, inactive

- Structure As Smiles: "CCCCc1nc2cccnc2n1Cc1ccc(-c2ccccc2-c2nnn[nH]2)cc1"
  Group: "inactive"
- Structure As Smiles: "COc1ccc(OC(F)(F)F)cc1CN[C@H]1CCCN[C@H]1c1ccccc1"
  Group: "active"
- Structure As Smiles: "CN(C)CCCN1c2ccccc2Sc2ccc(Cl)cc21"
  Group: "active"

Switching to the query record.
What classification did CN(C)C(=O)NC1(c2ccccc2)CCN(CCC[C@]2(c3ccc(Cl)c(Cl)c3)CCCN(C(=O)c3ccccc3)C2)CC1 end up with in this test?
inactive

---

- Assay Method Text: APR_HepG2_P-H2AX_72hr: Apredica 72-hour HepG2 Assay for H2AX Phosphorylation (AID 2282916);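 note: phospho-histone H2A.x immunostain intensity per cell marking DNA damage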
- Setup Conditions: imaging, actives raise or lower the signal
Activity calls are given as the source filed them. The calls were made as follows: active = hit-call score of the fitted dose curve at least 0.9, where 1 is the maximum; inactive = score below 0.9.
Log the outcome using a class from active, inactive

Reference set (3 entries):
- Molecule: "CCCCC(CC)COC(=O)CCCCCCCC(=O)OCC(CC)CCCC (stereo not drawn)"
  Group: "inactive"
- Molecule: "Cc1ccc(-c2cc(C(F)(F)F)nn2-c2ccc(S(N)(=O)=O)cc2)cc1"
  Group: "active"
- Molecule: "NC1CCCCC1"
  Group: "inactive"

I would be grateful if you could indicate the recorded call for O=C(O)CC(O)(CC(=O)O)C(=O)O .
inactive

Also CC(=O)O ?
active

Request: O=C1c2c(O)cccc2Cc2cccc(O)c21
inactive

Next entry: CC(=O)OCC(COC(C)=O)OC(C)=O
inactive

Same read-out for CS(=O)(=O)c1ccc([C@@H](C[C@H]2CCC(=O)C2)C(=O)Nc2cnccn2)cc1Cl ?
inactive

Note, next up: CN(C)CCCN1c2ccccc2Sc2ccc(Cl)cc21
active

CCCCCCC(C=O)=Cc1ccccc1 ?
inactive

Here is the next molecule: CCCCCCCCCCCCCCOS(=O)(=O)O
active

Now try CCCCC(CC)COP(=O)(OCC(CC)CCCC)OCC(CC)CCCC (stereo not drawn) .
active

Please answer likewise for CC(C)c1cccc(C(C)C)c1
inactive

---

- Read-out: X-box binding protein 1 (XBP1), XBP1 (gene 7494)
- Assay Method Text: LTEA_HepaRG_XBP1: Life Technologies and Expression Analysis (LTEA) Assay for X-box binding protein 1 (XBP1) using HepaRG (AID 2283540)
- Setup Conditions: mRNA level, 48 h; actives raise or lower the signal
Active and inactive are the calls of the source. Rule for the calls: active = hit-call score of the fitted dose curve at least 0.9, where 1 is the maximum; inactive = score below 0.9.
Quantity Measured: AC50

- Compound: "Nc1nc(Cl)nc2c1ncn2[C@H]1C[C@H](O)[C@@H](CO)O1"
  Readout Value: "1.56 µM (active)"
- Compound: "O=C1OC(c2ccc(O)cc2)(c2ccc(O)cc2)c2ccccc21"
  Readout Value: "inactive"
- Compound: "CCCCCCC(C=O)=Cc1ccccc1"
  Readout Value: "inactive"
- Compound: "CCCCCCC(CCCCCCCCCCC(=O)OCC(COC(C)=O)OC(C)=O)OC(C)=O (stereo not drawn)"
  Readout Value: "inactive"
- Compound: "O=C(O)c1cccnc1"
  Readout Value: "inactive"
- Compound: "Cc1cc(Cc2ccc(N)c(C)c2)ccc1N"
  Readout Value: "inactive"

Can you share its AC50? I mean this compound: OCC(O)CO
inactive

Field entry: CCCCCCCCCCCCCCCCO
inactive

---

- System Tested: guinea pig Serotonin, 5-Hydroxytryptamine Receptor 4 (5HT4), HTR4 (gene 100135548) (UniProt O70528)
- Sequence (O70528 whole entry, looked up): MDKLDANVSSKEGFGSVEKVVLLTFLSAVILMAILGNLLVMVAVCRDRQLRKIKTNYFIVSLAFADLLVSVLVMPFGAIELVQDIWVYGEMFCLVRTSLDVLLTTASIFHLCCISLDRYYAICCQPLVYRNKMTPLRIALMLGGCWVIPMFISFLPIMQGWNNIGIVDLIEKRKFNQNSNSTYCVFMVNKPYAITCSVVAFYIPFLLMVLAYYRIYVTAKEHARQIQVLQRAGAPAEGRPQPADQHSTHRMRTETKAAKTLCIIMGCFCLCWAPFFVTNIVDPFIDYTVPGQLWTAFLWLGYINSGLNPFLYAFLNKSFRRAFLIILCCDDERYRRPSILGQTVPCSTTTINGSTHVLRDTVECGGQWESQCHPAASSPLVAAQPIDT
- Assay Method Text: NVS_GPCR_g5HT4: NovaScreen (NVS) G Protein-Coupled Receptor Assay for guinea pig Serotonin, 5-Hydroxytryptamine Receptor 4 (5HT4) (AID 2283294)
Results filed as inconclusive are left out. Calls of active or inactive are those of the source. The calls were made as follows: active = hit-call score of the fitted dose curve at least 0.9, where 1 is the maximum; inconclusive = response in the unintended direction; inactive = score below 0.9.
Quantity Measured: AC50

Below, each entry is followed by its recorded AC50 result.
- Compound: "CC(C)COC(=O)CCCCC(=O)OCC(C)C"
  AC50: "inactive"
- Compound: "CN(C)CCCN(C)CCCN(C)C"
  AC50: "inactive"
- Compound: "CCN(CC)CCOc1ccc(C(=C(Cl)c2ccccc2)c2ccccc2)cc1"
  AC50: "11.4 µM (active)"
- Compound: "CC(=O)CC(c1ccccc1)c1c(O)c2ccccc2oc1=O (stereo unspecified)"
  AC50: "inactive"
- Compound: "CCc1nc(N)nc(N)c1-c1ccc(Cl)cc1"
  AC50: "4.48 µM (active)"

Next:
Request the reported AC50 associated with CN(C)CCCN1c2ccccc2Sc2ccc(Cl)cc21
15.3 µM (active)

---

- Read-out: solute carrier (SLCO1B1), SLCO1B1 (gene 10599)
- Assay Method Text: LTEA_HepaRG_SLCO1B1: Life Technologies and Expression Analysis (LTEA) Assay for solute carrier (SLCO1B1) using HepaRG (AID 2283530)
- Setup Conditions: mRNA level, 48 h; actives raise or lower the signal
Calls of active or inactive are those of the source. The calls were made as follows: active = hit-call score of the fitted dose curve at least 0.9, where 1 is the maximum; inactive = score below 0.9.
Just give me one of these, please: yes (1) for active, no (0) for inactive

Previously resolved entries follow.
- Compound: "CC(=O)OC1CC(C)OC(C)O1 (configuration not stated)"
  Group: "no (0)"
- Compound: "CCCCc1nc2cccnc2n1Cc1ccc(-c2ccccc2-c2nnn[nH]2)cc1"
  Group: "no (0)"
- Compound: "CC1(C)C(=O)NC(=O)N1CO"
  Group: "no (0)"
- Compound: "NC(=Nc1ccccc1)Nc1ccccc1"
  Group: "no (0)"
- Compound: "CCCC[C@H]1CN(CC2CCOCC2)C(=O)OC12CCN(C1(C)CCN(C(=O)c3c(C)ncnc3C)CC1)CC2"
  Group: "no (0)"

Hi, sorry to bother you, what did the test record for O=C1CCCCC1 ?
no (0)

Can you handle CCc1nc(N)nc(N)c1-c1ccc(Cl)cc1 next?
no (0)

# iterate: O=C(O)CC(O)(CC(=O)O)C(=O)O
no (0)

Another compound to check: Cc1c(C)c2c(c(C)c1O)CCC(C)(COc1ccc(CC3SC(=O)NC3=O)cc1)O2 (configuration not stated)
yes (1)

Moving on to O=C1OC(c2ccc(O)cc2)(c2ccc(O)cc2)c2ccccc21
yes (1)

Follow-up entry: OCC(CO)n1cnc(-c2ccc(F)cc2)c1-c1ccnc(Oc2ccccc2)n1
no (0)

What would you report for C#CC(O)C(CC)CCCC (configuration not stated) ?
no (0)
